biological target: Glutamate receptor ionotropic, kainate 2 (Homo sapiens, UniProt Q13002); test: Electrophysiological activity at 1 uM domoate from HEK293 cells transfected with ionotropic glutamate receptor kainate 2; type: functional, cell-based
Sequence (Q13002 whole entry): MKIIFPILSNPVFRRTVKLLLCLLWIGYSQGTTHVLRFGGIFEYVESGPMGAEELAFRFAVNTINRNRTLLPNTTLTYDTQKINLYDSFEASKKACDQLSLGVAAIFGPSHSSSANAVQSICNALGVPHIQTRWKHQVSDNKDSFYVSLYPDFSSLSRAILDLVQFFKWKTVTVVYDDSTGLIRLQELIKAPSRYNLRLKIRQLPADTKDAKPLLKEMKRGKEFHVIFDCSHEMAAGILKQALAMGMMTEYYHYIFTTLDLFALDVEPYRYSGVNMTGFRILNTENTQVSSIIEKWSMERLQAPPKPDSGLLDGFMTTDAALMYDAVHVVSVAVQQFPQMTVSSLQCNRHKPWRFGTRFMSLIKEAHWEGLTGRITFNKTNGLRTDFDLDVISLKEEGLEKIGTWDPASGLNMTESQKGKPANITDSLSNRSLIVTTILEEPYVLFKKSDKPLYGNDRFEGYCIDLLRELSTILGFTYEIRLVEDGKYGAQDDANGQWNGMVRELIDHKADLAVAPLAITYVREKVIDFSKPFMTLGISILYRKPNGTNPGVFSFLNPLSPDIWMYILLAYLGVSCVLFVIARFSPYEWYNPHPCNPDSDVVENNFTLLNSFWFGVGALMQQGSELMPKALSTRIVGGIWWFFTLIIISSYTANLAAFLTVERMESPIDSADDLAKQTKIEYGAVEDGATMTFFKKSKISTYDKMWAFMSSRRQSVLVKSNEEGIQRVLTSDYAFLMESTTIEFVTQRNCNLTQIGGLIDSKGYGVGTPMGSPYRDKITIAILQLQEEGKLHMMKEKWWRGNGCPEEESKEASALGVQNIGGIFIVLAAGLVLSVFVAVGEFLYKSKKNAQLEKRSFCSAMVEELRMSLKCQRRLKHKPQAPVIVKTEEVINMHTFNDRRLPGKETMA
The entries below come with measured Response values attached.

{"columns": ["COMPOUND", "TARGET DESC", "Response"],
 "data": [
  ["CC(c1cccc(-c2ccccc2)c1)[C@H]1CN[C@H](C(=O)O)[C@H]1CC(=O)O (some centres undefined)", "Glutamate receptor ionotropic, kainate 2 (Homo sapiens, UniProt Q13002)", "12%"],
  ["C=C(c1ccc(CCC)cc1)[C@H]1CN[C@H](C(=O)O)[C@H]1CC(=O)O", "Glutamate receptor ionotropic, kainate 2 (Homo sapiens, UniProt Q13002)", "24%"],
  ["C=C(c1ccc(OCCc2ccccc2)cc1)[C@H]1CN[C@H](C(=O)O)[C@H]1CC(=O)O", "Glutamate receptor ionotropic, kainate 2 (Homo sapiens, UniProt Q13002)", "16%"],
  ["C=C(c1ccc(C)cc1)[C@H]1CN[C@H](C(=O)O)[C@H]1CC(=O)O", "Glutamate receptor ionotropic, kainate 2 (Homo sapiens, UniProt Q13002)", "61%"],
  ["C=C(C)[C@H]1CN[C@H](C(=O)O)[C@H]1CC(=O)O", "Glutamate receptor ionotropic, kainate 2 (Homo sapiens, UniProt Q13002)", "39%"],
  ["C=C(c1cccc(OCCCC)c1)[C@H]1CN[C@H](C(=O)O)[C@H]1CC(=O)O", "Glutamate receptor ionotropic, kainate 2 (Homo sapiens, UniProt Q13002)", "5%"],
  ["C=C(c1ccc(-c2ccccc2)cc1)[C@H]1CN[C@H](C(=O)O)[C@H]1CC(=O)O", "Glutamate receptor ionotropic, kainate 2 (Homo sapiens, UniProt Q13002)", "36%"],
  ["C=C(c1ccc(CC)cc1)[C@H]1CN[C@H](C(=O)O)[C@H]1CC(=O)O", "Glutamate receptor ionotropic, kainate 2 (Homo sapiens, UniProt Q13002)", "22%"],
  ["C=C(c1ccc(OCCc2ccccc2)c(OC)c1)[C@H]1CN[C@H](C(=O)O)[C@H]1CC(=O)O", "Glutamate receptor ionotropic, kainate 2 (Homo sapiens, UniProt Q13002)", "2%"],
  ["C=C(c1ccccc1)[C@H]1CN[C@H](C(=O)O)[C@H]1CC(=O)O", "Glutamate receptor ionotropic, kainate 2 (Homo sapiens, UniProt Q13002)", "48%"],
  ["C=C(c1ccc(OC)cc1)[C@H]1CN[C@H](C(=O)O)[C@H]1CC(=O)O", "Glutamate receptor ionotropic, kainate 2 (Homo sapiens, UniProt Q13002)", "37%"],
  ["C=C(c1ccc(Oc2ccccc2)cc1)[C@H]1CN[C@H](C(=O)O)[C@H]1CC(=O)O", "Glutamate receptor ionotropic, kainate 2 (Homo sapiens, UniProt Q13002)", "15%"],
  ["C=C(c1ccc(F)c(C)c1)[C@H]1CN[C@H](C(=O)O)[C@H]1CC(=O)O", "Glutamate receptor ionotropic, kainate 2 (Homo sapiens, UniProt Q13002)", "38%"],
  ["C=C(c1cc(C)cc(C)c1)[C@H]1CN[C@H](C(=O)O)[C@H]1CC(=O)O", "Glutamate receptor ionotropic, kainate 2 (Homo sapiens, UniProt Q13002)", "23%"],
  ["C=C(c1cccc(OC)c1)[C@H]1CN[C@H](C(=O)O)[C@H]1CC(=O)O", "Glutamate receptor ionotropic, kainate 2 (Homo sapiens, UniProt Q13002)", "46%"],
  ["C=C(c1ccc(OCCCCCc2ccccc2)cc1)[C@H]1CN[C@H](C(=O)O)[C@H]1CC(=O)O", "Glutamate receptor ionotropic, kainate 2 (Homo sapiens, UniProt Q13002)", "0%"],
  ["C=C(c1ccc(C(C)(C)C)cc1)[C@H]1CN[C@H](C(=O)O)[C@H]1CC(=O)O", "Glutamate receptor ionotropic, kainate 2 (Homo sapiens, UniProt Q13002)", "8%"],
  ["C=C(c1ccc(OCCCCC)c(C)c1)[C@H]1CN[C@H](C(=O)O)[C@H]1CC(=O)O", "Glutamate receptor ionotropic, kainate 2 (Homo sapiens, UniProt Q13002)", "17%"],
  ["C=C(c1ccc(CCCC)cc1)[C@H]1CN[C@H](C(=O)O)[C@H]1CC(=O)O", "Glutamate receptor ionotropic, kainate 2 (Homo sapiens, UniProt Q13002)", "11%"],
  ["C=C(CC)c1ccc(C(=C)[C@H]2CN[C@H](C(=O)O)[C@H]2CC(=O)O)cc1", "Glutamate receptor ionotropic, kainate 2 (Homo sapiens, UniProt Q13002)", "15%"],
  ["C=C(c1ccc(OCCc2ccccc2)c(C)c1)[C@H]1CN[C@H](C(=O)O)[C@H]1CC(=O)O", "Glutamate receptor ionotropic, kainate 2 (Homo sapiens, UniProt Q13002)", "12%"],
  ["C=C(c1cccc(OCCC(c2ccccc2)c2ccccc2)c1)[C@@H]1CN[C@H](C(=O)O)[C@H]1CC(=O)O", "Glutamate receptor ionotropic, kainate 2 (Homo sapiens, UniProt Q13002)", "0%"],
  ["C=C(C)c1ccc(C(=C)[C@H]2CN[C@H](C(=O)O)[C@H]2CC(=O)O)cc1", "Glutamate receptor ionotropic, kainate 2 (Homo sapiens, UniProt Q13002)", "17%"],
  ["C=C(c1cccc(-c2ccccc2)c1)[C@H]1CN[C@H](C(=O)O)[C@H]1CC(=O)O", "Glutamate receptor ionotropic, kainate 2 (Homo sapiens, UniProt Q13002)", "65%"],
  ["C=C(c1cccc(OCCc2ccccc2)c1)[C@H]1CN[C@H](C(=O)O)[C@H]1CC(=O)O", "Glutamate receptor ionotropic, kainate 2 (Homo sapiens, UniProt Q13002)", "6%"],
  ["C=C(c1ccc(C)c(C)c1)[C@H]1CN[C@H](C(=O)O)[C@H]1CC(=O)O", "Glutamate receptor ionotropic, kainate 2 (Homo sapiens, UniProt Q13002)", "50%"],
  ["C=C(c1cccc(C)c1)[C@H]1CN[C@H](C(=O)O)[C@H]1CC(=O)O", "Glutamate receptor ionotropic, kainate 2 (Homo sapiens, UniProt Q13002)", "29%"],
  ["CC(c1ccccc1)[C@H]1CN[C@H](C(=O)O)[C@H]1CC(=O)O (some centres undefined)", "Glutamate receptor ionotropic, kainate 2 (Homo sapiens, UniProt Q13002)", "0%"]
]}

====

pKi: −log10 of the molar value.
Assay read-out pKi; system under study: Glutamate receptor ionotropic, kainate 2 (Rattus norvegicus, UniProt P42260).
Sequence (P42260 whole entry): as the sequence (Q13002 whole entry) above, with F5S, I7V, P11L, R14S, T16S, V17I, L19V, A494V counted along it

{"columns": ["RECORD SMILES", "pKi"],
 "data": [
  ["C=C(c1ccccc1)[C@H]1CN[C@H](C(=O)O)[C@H]1CC(=O)O", 8.80],
  ["C=C(c1ccc(-c2ccccc2)cc1)[C@H]1CN[C@H](C(=O)O)[C@H]1CC(=O)O", 8.04],
  ["C=C(c1cccc(OCCC(c2ccccc2)c2ccccc2)c1)[C@@H]1CN[C@H](C(=O)O)[C@H]1CC(=O)O", 5.52],
  ["C=C(C)c1ccc(C(=C)[C@H]2CN[C@H](C(=O)O)[C@H]2CC(=O)O)cc1", 8.44],
  ["C=C(c1ccc(OC)cc1)[C@H]1CN[C@H](C(=O)O)[C@H]1CC(=O)O", 8.41]
]}

====

What follows is a collection of Ki values obtained with UniProt:P42260.
MEASURED PROPERTY: Ki

{"columns": ["RECORD SMILES", "MEASURED PROPERTY", "TEST RESULT"],
 "data": [
  ["C=C(c1ccc(Oc2ccccc2)cc1)[C@H]1CN[C@H](C(=O)O)[C@H]1CC(=O)O", "Ki", "11.9 nM"],
  ["C=C(C)c1ccc(C(=C)[C@@H]2CN[C@H](C(=O)O)[C@H]2CC(=O)O)cc1", "Ki", "5400 nM"],
  ["C=C(c1cccc(OCCCC)c1)[C@H]1CN[C@H](C(=O)O)[C@H]1CC(=O)O", "Ki", "23.3 nM"],
  ["C=C(c1ccc(Cl)cc1)[C@H]1CN[C@H](C(=O)O)[C@H]1CC(=O)O", "Ki", "3.9 nM"],
  ["C=C(c1ccc(CC)cc1)[C@H]1CN[C@H](C(=O)O)[C@H]1CC(=O)O", "Ki", "7.7 nM"],
  ["C=C(c1cccc(OCCc2ccccc2)c1)[C@H]1CN[C@H](C(=O)O)[C@H]1CC(=O)O", "Ki", "16 nM"],
  ["C=C(c1ccc(OCCCC)cc1)[C@H]1CN[C@H](C(=O)O)[C@H]1CC(=O)O", "Ki", "2.8 nM"],
  ["C=C(c1ccccc1)[C@@H]1CN[C@H](C(=O)O)[C@H]1CC(=O)O", "Ki", "230 nM"],
  ["C=C(c1cccc(OC)c1)[C@H]1CN[C@H](C(=O)O)[C@H]1CC(=O)O", "Ki", "3.5 nM"],
  ["C=C(c1ccc(C(C)(C)C)cc1)[C@H]1CN[C@H](C(=O)O)[C@H]1CC(=O)O", "Ki", "18.5 nM"],
  ["C=C(c1cc(C)cc(C)c1)[C@H]1CN[C@H](C(=O)O)[C@H]1CC(=O)O", "Ki", "9.5 nM"]
]}
